# Tested on: cat flea (Ctenocephalides felis)
# Method Notes: Ctenocephalides felis adulticide assay: single dose screen on treated glass surface (% mortality at 1.26 μg/cm^2, 24 hours)
# Type: in vivo
# Condition Summary: in vivo
Recorded Endpoint: Ctenocephalides felis Mortality (%) 24 h
Answers are plain numbers, in %.

Record excerpt, results attached:
| Molecular String | Unit Text | Ctenocephalides felis Mortality (%) 24 h |
| --- | --- | --- |
| O=S(=O)(Nc1ccc(Cl)cc1Oc1ccc(Oc2ccccc2)cc1)C(F)(F)F | % | 36 |
| O=S(=O)(Nc1ccc(Cl)cc1Oc1ccccc1F)C(F)(F)F | % | 100 |

Quick one: give me Ctenocephalides felis Mortality (%) 24 h for each item below, same order please.
1. O=S(=O)(Nc1cccc(Oc2ccccc2)c1)C(F)(F)F
2. O=S(=O)(Nc1cc(C(F)(F)F)ccc1Sc1ccc(Br)cc1)C(F)(F)F
3. O=S(=O)(Nc1cc(C(F)(F)F)ccc1Sc1ccc(F)cc1)C(F)(F)F

Ans.
1: 93; 2: 5; 3: 21

---

Provide the recorded Ctenocephalides felis Mortality (%), measured at 48 hours for the entries that follow.
# Test system: cat flea (Ctenocephalides felis)
# Method Notes: Ctenocephalides felis adulticide assay: single dose screen on treated glass surface (% mortality at 1.26 μg/cm^2, 24 hours)
# Format: in vivo
# Condition Summary: in vivo
Numbers only, in %.

Quick one: give me Ctenocephalides felis Mortality (%), measured at 48 hours for each item below, same order please.
1. CN(c1ccc(Cl)cc1Oc1ccc(Cl)cc1Cl)S(=O)(=O)C(F)(F)F [Compound 70]
2. CCCC(=O)OCN(c1ccc(Cl)cc1Oc1ccc(Cl)cc1Cl)S(=O)(=O)C(F)(F)F [Compound 73]
3. CCOCN(c1ccc(Cl)cc1Oc1ccc(Cl)cc1Cl)S(=O)(=O)C(F)(F)F [Compound 71]
4. CC(C)(C)C(=O)OCN(c1ccc(Cl)cc1Oc1ccc(Cl)cc1Cl)S(=O)(=O)C(F)(F)F [Compound 72]

Ans.
1: 91; 2: 100; 3: 100; 4: 100

---

# System: cat flea (Ctenocephalides felis)
# Method Notes: Ctenocephalides felis adulticide assay: single dose screen on treated glass surface (% mortality at 1.26 μg/cm^2, 24 hours)
# Format: in vivo
# Condition Summary: in vivo
Provide the recorded Ctenocephalides felis Mortality (%) 24 h for the entries that follow.
Answers are plain numbers, in %.

Record excerpt, results attached:
| Molecular String | Test Value |
| --- | --- |
| O=S(=O)(N(Cc1ccccc1)c1ccc(Cl)cc1Oc1ccccc1F)C(F)(F)F | 1 |
| COCN(c1cccc(Oc2ccccc2)c1)S(=O)(=O)C(F)(F)F | 90 |
| O=S(=O)(Nc1cccc(Oc2ccc(Cl)cc2Cl)c1)C(F)(F)F | 34 |

Quick one: give me Ctenocephalides felis Mortality (%) 24 h for each item below, same order please.
1. O=S(=O)(Nc1ccc(Cl)cc1Sc1ccccc1)C(F)(F)F
2. O=S(=O)(Nc1ccc(Cl)cc1Sc1ccccc1Cl)C(F)(F)F

Ans.
[100, 25]

---

Provide the recorded Ctenocephalides felis Mortality (%) 24 h for the entries that follow.
# Test system: cat flea (Ctenocephalides felis)
# Method Notes: Ctenocephalides felis adulticide assay: single dose screen on treated glass surface (% mortality at 1.26 μg/cm^2, 24 hours)
# Type: in vivo
# Condition Summary: in vivo
# Experimental: The LC50 value is the concentration, expressed as μg/cm^2, that was required to kill 50% of the sample of cat fleas on contact with the tested compound. Certain tests are also reported as the percent of a sample of cat fleas that were killed at a concentration of 1.26 μg/cm^2 (“% mortality”), for the compounds tested in this way. b) Ctenocephalides felis Adulticide Assay: C.felis single dose screen Mortality of fleas is the primary endpoint in the assay. […]
Numbers only, in %.

Record excerpt, results attached:
| Molecular String | Recorded Endpoint | Unit Text | Test Value |
| --- | --- | --- | --- |
| COCN(c1ccc(Oc2ccccc2)cc1)S(=O)(=O)C(F)(F)F | Ctenocephalides felis Mortality (%) 24 h | % | 49 |
| O=S(=O)(Nc1ccc(Cl)cc1Sc1ccc(F)cc1)C(F)(F)F | Ctenocephalides felis Mortality (%) 24 h | % | 100 |
| O=S(=O)(Nc1ccc(Cl)cc1Oc1ccccc1Cl)C(F)(F)F | Ctenocephalides felis Mortality (%) 24 h | % | 74 |
| O=S(=O)(Nc1cc(C(F)(F)F)ccc1Oc1ccc(F)cc1)C(F)(F)F | Ctenocephalides felis Mortality (%) 24 h | % | 100 |
| O=S(=O)(Nc1cc(C(F)(F)F)ccc1Sc1ccccc1)C(F)(F)F | Ctenocephalides felis Mortality (%) 24 h | % | 10 |

Quick one: give me Ctenocephalides felis Mortality (%) 24 h for each item below, same order please.
1. N#Cc1ccc(NS(=O)(=O)C(F)(F)F)c(Oc2ccc(Cl)cc2Cl)c1
2. Cc1ccccc1Oc1cc(Cl)ccc1NS(=O)(=O)C(F)(F)F
3. O=S(=O)(Nc1ccc(Cl)cc1Oc1ccc(F)c(F)c1)C(F)(F)F
4. O=S(=O)(Nc1cc(C(F)(F)F)ccc1Sc1ccccc1F)C(F)(F)F

Ans.
1: 23; 2: 100; 3: 100; 4: 20
